Every entry's value here was drawn from patent US20260151494A1.

Field: hCD71:HSA. Provide a value for each of the binders that follow.
target: T1, human CD71 extracellular domain (human, UniProt P02786 89-760); assay: primary ELISA; signal over HSA control
T1 construct: also called hCD71; CD71-ECD
T1 sequence (P02786 89-760): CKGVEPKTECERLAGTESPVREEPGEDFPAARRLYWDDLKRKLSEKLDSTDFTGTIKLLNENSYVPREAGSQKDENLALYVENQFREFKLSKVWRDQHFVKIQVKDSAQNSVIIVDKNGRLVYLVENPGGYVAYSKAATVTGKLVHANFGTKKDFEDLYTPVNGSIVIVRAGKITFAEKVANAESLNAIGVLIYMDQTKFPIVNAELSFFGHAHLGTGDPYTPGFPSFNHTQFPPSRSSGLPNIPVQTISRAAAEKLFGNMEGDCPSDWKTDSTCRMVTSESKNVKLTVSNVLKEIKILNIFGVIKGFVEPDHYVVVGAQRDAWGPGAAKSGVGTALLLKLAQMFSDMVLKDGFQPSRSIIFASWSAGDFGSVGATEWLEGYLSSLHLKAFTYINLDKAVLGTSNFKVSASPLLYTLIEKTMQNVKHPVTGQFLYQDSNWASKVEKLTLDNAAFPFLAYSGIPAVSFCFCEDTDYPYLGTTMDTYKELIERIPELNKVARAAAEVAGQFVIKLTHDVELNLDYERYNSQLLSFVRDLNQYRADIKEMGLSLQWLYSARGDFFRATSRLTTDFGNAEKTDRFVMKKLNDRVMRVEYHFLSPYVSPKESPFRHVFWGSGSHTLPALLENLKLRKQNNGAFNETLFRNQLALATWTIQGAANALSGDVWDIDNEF
// units = ratio; emit number, no label

Recorded hCD71:HSA of CD71-binding FN3 domain SEQ ID NO 419 (designed binder) MLPAPKNLVVSRVTEDSARLSWTAPDAAFDSFFIGYLEPQPPGEAIALLVPGSERSYDLTGLKPGTEYNVTIQGVKGGFPSSPLNAYFTT , please.
211

Recorded hCD71:HSA of CD71-binding FN3 domain SEQ ID NO 384 (designed binder) MLPAPKNLVVSRVTEDSARLSWTAPDAAFDSFEIDYAENRHHGEAIALLVPGSERSYDLTGLKPGTEYIVFIGGVKGGRWSQPLVASFTT , please.
21

Recorded hCD71:HSA of CD71-binding FN3 domain SEQ ID NO 437 (designed binder) MLPAPKNLVVSRVTEDSARLSWTAPDAAFDSFFIGYLEPQPPGEAISLWVPGSERSYDLTGLKPGTEYNVTIQGVKGGFPSTPLSAKFTT , please.
168

Recorded hCD71:HSA of CD71-binding FN3 domain SEQ ID NO 423 (designed binder) MLPAPKNLVVSRVTEDSARLSWTAPDAAFDSFFIGYLEPQPPGEAIALYVPGSERSYDLTGLKPGTEYNVTIQGVKGGFPSEPLVATFTT , please.
58
